Data provenance is ChEMBL document CHEMBL4330114.

Assay: Selectivity index, ratio of CC50 for mock-infected human MT4 cells to EC50 for wild type HIV1 3B infected in human MT4 cells
Format: toxicity, cell-based
Conditions: read-out: Selectivity Index
REPORTED_METRIC: selectivity ratio
Form rule: numeric answer, no unit written next to it.

What the record says about N#Cc1cc(Cl)cc(Oc2c(C(F)(F)F)ccn(CC(=O)Nc3ccc(C(F)(F)F)cc3)c2=O)c1 : selectivity ratio is 7

What the record says about CS(=O)(=O)c1ccc(NC(=O)Cn2ccc(C(F)(F)F)c(Oc3cc(Cl)cc(C#N)c3)c2=O)cc1 : selectivity ratio is 3

What the record says about N#Cc1cc(Cl)cc(Oc2c(C(F)(F)F)ccn(CC(=O)Nc3ccncc3)c2=O)c1 : selectivity ratio is 4

###

Target: Human immunodeficiency virus type 1 reverse transcriptase (Human immunodeficiency virus 1)
Experiment: Inhibition of recombinant wild type HIV1 reverse transcriptase assessed as reduction in biotin-dUTP incorporation using poly(A)/oligo(dT)15 as template/primer after 1 hr by ELISA
REPORTED_METRIC: pIC50
In simple prose, pIC50 is minus the logarithm base ten of a concentration in moles per litre.

What the record says about CC(C)OC(=O)OCn1nc(Cn2ccc(C(F)(F)F)c(Oc3cc(Cl)cc(C#N)c3)c2=O)n(C)c1=O : pIC50 is 5.68

What the record says about N#Cc1cc(Cl)cc(Oc2c(C(F)(F)F)ccn(CC(=O)Nc3ncn[nH]3)c2=O)c1 : pIC50 is 6.28

What the record says about CS(=O)(=O)c1ccc(NC(=O)Cn2ccc(C(F)(F)F)c(Oc3cc(Cl)cc(C#N)c3)c2=O)cc1 : pIC50 is 6.00

What the record says about N#Cc1cc(Cl)cc(Oc2c(C(F)(F)F)ccn(CC(=O)Nc3cnccn3)c2=O)c1 : pIC50 is 4.20

What the record says about N#Cc1cc(Cl)cc(Oc2c(C(F)(F)F)ccn(CC(=O)Nc3ccncc3)c2=O)c1 : pIC50 is 4.49

What the record says about Cn1c(Cn2ccc(C(F)(F)F)c(Oc3cc(Cl)cc(C#N)c3)c2=O)n[nH]c1=O : pIC50 is 7.72

What the record says about Cn1c(Cn2ccc(C(F)(F)F)c(Oc3cc(Cl)cc(C#N)c3)c2=O)nn(COP(=O)(O)O)c1=O : pIC50 is 6.03

What the record says about N#Cc1cc(Cl)cc(Oc2c(C(F)(F)F)ccn(CC(=O)Nc3ccc([N+](=O)[O-])cc3)c2=O)c1 : pIC50 is 5.90

What the record says about N#Cc1cc(Cl)cc(Oc2c(C(F)(F)F)ccn(CC(=O)Nc3cccnc3)c2=O)c1 : pIC50 is 3.88

What the record says about N#Cc1cc(Cl)cc(Oc2c(C(F)(F)F)ccn(CC(=O)Nc3cn[nH]c3)c2=O)c1 : pIC50 is 5.90

What the record says about N#Cc1cc(Cl)cc(Oc2c(C(F)(F)F)ccn(CC(=O)Nc3ccc(Br)cc3)c2=O)c1 : pIC50 is 4.03

What the record says about N#Cc1cc(Cl)cc(Oc2c(C(F)(F)F)ccn(CC(=O)Nc3ccn[nH]3)c2=O)c1 : pIC50 is 4.71

What the record says about N#Cc1cc(Cl)cc(Oc2c(C(F)(F)F)ccn(CC(=O)Nc3ccc(F)cc3)c2=O)c1 : pIC50 is 4.14

What the record says about N#Cc1cc(Cl)cc(Oc2c(C(F)(F)F)ccn(CC(=O)Nc3ccc(C(F)(F)F)cc3)c2=O)c1 : pIC50 is 4.52
